Molecular target: TR beta-LBD (thyroid hormone receptor beta) (Homo sapiens (Human))
Assay: LanthaScreen TR-FRET Thyroid Receptor beta Coactivator Assay (agonist screening)
Assay type: biochemical
Conditions: THR beta over THR alpha, derived from T3-selectivity normalized data
quantity-name: THRβ-Selectivity
// response body must contain only the number

Examples from the recorded data:
{"columns": ["compound", "result-value"],
 "data": [
  ["CC(C)c1cc(Cc2c(Cl)cc(NC(=O)c3noc(=O)[nH]3)cc2Cl)nn(C)c1=O [Example 14]", 48],
  ["CC(C)c1cc(Cc2c(Cl)cc(NC(=O)c3noc(=O)[nH]3)cc2Cl)n[nH]c1=O [Example 13]", 86.5]
]}

**Query** Could you share which THRβ-Selectivity value was measured for CC[C@H](O)c1cc(Oc2c(Cl)cc(NC(=O)c3noc(=O)[nH]3)cc2Cl)n[nH]c1=O [Example 32P2] ?
**Result** 81

---

Molecular target: TR alpha-LBD (thyroid hormone receptor alpha) (Homo sapiens (Human))
Sequence (P10827 other isoform, or with tags, fused parts or gaps del 1-162, other chains not shown): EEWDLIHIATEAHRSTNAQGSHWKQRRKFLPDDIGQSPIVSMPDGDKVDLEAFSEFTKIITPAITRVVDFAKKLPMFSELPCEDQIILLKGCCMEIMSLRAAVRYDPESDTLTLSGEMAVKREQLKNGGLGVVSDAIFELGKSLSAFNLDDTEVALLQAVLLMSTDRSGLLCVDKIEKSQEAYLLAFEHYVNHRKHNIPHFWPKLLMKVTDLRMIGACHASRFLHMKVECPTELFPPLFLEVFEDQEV
Assay: LanthaScreen TR-FRET Thyroid Receptor alpha Coactivator Assay (agonist screening)
Conditions: TR alpha-LBD 0.4 nM, 2 hour incubation, average of duplicate runs, read-out: EC50 THRα-FRET
Attribute: EC50

{"columns": ["smi", "EC50"],
 "data": [
  ["CC(C)c1cc(Cc2c(Cl)cc(NC(=O)c3noc(=O)[nH]3)cc2Cl)n[nH]c1=O", "1.63 µM"],
  ["CC(C)c1cc(Oc2c(Cl)cc(NC(=O)c3noc(=O)[nH]3)c(F)c2Cl)n[nH]c1=O", "0.577 µM"],
  ["CC(C)c1cc(Cc2c(Cl)cc(NC(=O)c3noc(=O)[nH]3)cc2Cl)nn(C)c1=O", "0.549 µM"]
]}

**Query** Could you share which EC50 value was measured for Cc1cc(NC(=O)c2noc(=O)[nH]2)cc(C)c1Cc1cc(C(C)C)c(=O)[nH]n1 ?
**Result** 3.11 µM

**Query** Could you share which EC50 value was measured for O=C(Nc1cc(Cl)c(Oc2cc(C34CC(C3)C4)c(=O)[nH]n2)c(Cl)c1)c1noc(=O)[nH]1 ?
**Result** > 5 µM

**Query** Could you share which EC50 value was measured for CC(C)c1cc(C(=O)c2c(Cl)cc(NCc3noc(=O)[nH]3)cc2Cl)nn(C)c1=O ?
**Result** 0.55 µM

**Query** Could you share which EC50 value was measured for CC(C)c1cc(Oc2c(Cl)cc(NC(=O)c3noc(=O)[nH]3)cc2Cl)nn(C)c1=O ?
**Result** 0.314 µM

**Query** Could you share which EC50 value was measured for CC(C)c1cc(C(=O)c2c(Cl)cc(NC(=O)c3noc(=O)[nH]3)cc2Cl)nn(C)c1=O ?
**Result** > 5 µM

---

Attribute: THRβ-Selectivity
Target: TR beta-LBD (thyroid hormone receptor beta) (Homo sapiens (Human), UniProt P10828)
Sequence (P10828 217-461): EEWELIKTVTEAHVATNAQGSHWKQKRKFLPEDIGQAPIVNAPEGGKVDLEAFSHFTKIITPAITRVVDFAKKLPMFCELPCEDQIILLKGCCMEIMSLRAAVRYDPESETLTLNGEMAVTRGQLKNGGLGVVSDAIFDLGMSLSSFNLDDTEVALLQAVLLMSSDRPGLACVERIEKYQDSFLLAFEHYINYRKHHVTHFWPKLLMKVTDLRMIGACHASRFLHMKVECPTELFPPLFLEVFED
Experiment: LanthaScreen TR-FRET Thyroid Receptor beta Coactivator Assay (agonist screening)
Assay type: biochemical
Conditions: THR beta over THR alpha, derived from T3-selectivity normalized data

Examples from the recorded data:
{"columns": ["compound", "quantity-name", "result-value"],
 "data": [
  ["CC(C)c1cc(Oc2c(Cl)cc(NC(=O)c3noc(=O)[nH]3)cc2Cl)nn(C)c1=O", "THRβ-Selectivity", 31.7],
  ["Cc1cc(NC(=O)c2noc(=O)[nH]2)cc(C)c1Cc1cc(C(C)C)c(=O)[nH]n1", "THRβ-Selectivity", 14.3],
  ["Cc1c(NC(=O)c2noc(=O)[nH]2)cc(Cl)c(Oc2cc(C(C)C)c(=O)n(C)n2)c1Cl", "THRβ-Selectivity", 4.8]
]}

**Query** Could you share which THRβ-Selectivity value was measured for CC(C)c1cc(Oc2c(Cl)cc(NC(=O)c3noc(=O)[nH]3)c(F)c2Cl)n[nH]c1=O ?
**Result** 10.9

**Query** Could you share which THRβ-Selectivity value was measured for C[C@H](O)c1cc(Oc2c(Cl)cc(NC(=O)c3noc(=O)[nH]3)cc2Cl)n[nH]c1=O ?
**Result** 80.8

**Query** Could you share which THRβ-Selectivity value was measured for CC(C)c1cc(Oc2c(Cl)cc(-c3cc(=O)[nH]o3)cc2Cl)nn(C)c1=O ?
**Result** 13.1

**Query** Could you share which THRβ-Selectivity value was measured for CC(C)c1cc(Oc2c(Cl)cc(NCc3noc(=O)[nH]3)c(F)c2Cl)nn(C)c1=O ?
**Result** 21.5

**Query** Could you share which THRβ-Selectivity value was measured for CC(C)c1cc(Oc2c(Cl)cc(-c3cc(=O)[nH]o3)cc2Cl)n[nH]c1=O ?
**Result** 7

**Query** Could you share which THRβ-Selectivity value was measured for CC(C)c1cc(Cc2c(Cl)cc(NCc3noc(=O)[nH]3)cc2Cl)nn(C)c1=O ?
**Result** 6.7

**Query** Could you share which THRβ-Selectivity value was measured for CCC(O)c1cc(Oc2c(Cl)cc(NC(=O)c3noc(=O)[nH]3)cc2Cl)n[nH]c1=O (stereo not drawn) ?
**Result** 77.9

---

Molecular target: UniProt P10828
Experiment: LanthaScreen TR-FRET Thyroid Receptor beta Coactivator Assay (agonist screening)
Conditions: TR-FRET coactivator assay, TR beta-LBD 1.0 nM, 2 hour incubation; average of duplicate runs; read-out: EC50 THRβ-FRET
Attribute: EC50

Examples from the recorded data:
{"columns": ["compound", "result-value"],
 "data": [
  ["CC(C)c1cc(C(=O)c2c(Cl)cc(NC(=O)c3noc(=O)[nH]3)cc2Cl)nn(C)c1=O", "2110 nM"],
  ["Cc1c(NCc2noc(=O)[nH]2)cc(Cl)c(Oc2cc(C(C)C)c(=O)n(C)n2)c1Cl", "71.2 nM"],
  ["CC(C)c1cc(Oc2c(Cl)cc(NC(C)c3noc(=O)[nH]3)cc2Cl)nn(C)c1=O (single isomer, unassigned) [Example 3-P1]", "277 nM"]
]}

**Query** What measured EC50 is associated with CC[C@H](O)c1cc(Oc2c(Cl)cc(NC(=O)c3noc(=O)[nH]3)cc2Cl)n[nH]c1=O on UniProt P10828?
**Result** 43.3 nM

**Query** What measured EC50 is associated with CC(C)c1cc(Oc2c(Cl)cc(NCc3noc(=O)[nH]3)cc2Cl)nn(C)c1=O on UniProt P10828?
**Result** 7.6 nM

**Query** What measured EC50 is associated with CC(C)c1cc(S(=O)(=O)c2c(Cl)cc(NCc3noc(=O)[nH]3)cc2Cl)nn(C)c1=O on UniProt P10828?
**Result** > 5000 nM

**Query** What measured EC50 is associated with CC(C)(O)c1cc(Oc2c(Cl)cc(NC(=O)c3noc(=O)[nH]3)cc2Cl)n[nH]c1=O on UniProt P10828?
**Result** 212 nM

---

Target: TR beta-LBD (thyroid hormone receptor beta) (Homo sapiens (Human), UniProt P10828)
Experiment: LanthaScreen TR-FRET Thyroid Receptor beta Coactivator Assay (agonist screening)
Details: TR-FRET coactivator assay, TR beta-LBD 1.0 nM, 2 hour incubation; average of duplicate runs; read-out: EC50 THRβ-FRET
quantity-name: log10(EC50) (log10 of the value in nM)
Hi team, quick reminder: these entries are log10 of EC50 (nM).

{"columns": ["molecule", "system-name", "log10(EC50)"],
 "data": [
  ["C[C@H](O)c1cc(Oc2c(Cl)cc(NC(=O)c3noc(=O)[nH]3)cc2Cl)n[nH]c1=O", "TR beta-LBD (thyroid hormone receptor beta) (Homo sapiens (Human), UniProt P10828)", 1.96],
  ["CC(C)c1cc(Cc2c(Cl)cc(NC(=O)c3noc(=O)[nH]3)cc2Cl)nn(C)c1=O", "TR beta-LBD (thyroid hormone receptor beta) (Homo sapiens (Human), UniProt P10828)", 1.67],
  ["CC(C)c1cc(Cc2c(Cl)cc(NCc3noc(=O)[nH]3)cc2Cl)n[nH]c1=O", "TR beta-LBD (thyroid hormone receptor beta) (Homo sapiens (Human), UniProt P10828)", 1.50]
]}

**Query** Could you share which log10(EC50) value was measured for Cn1nc(Oc2c(Cl)cc(NC(=O)c3noc(=O)[nH]3)cc2Cl)cc(C(C)(C)O)c1=O ?
**Result** 1.54

**Query** Could you share which log10(EC50) value was measured for CC(C)c1cc(C(=O)c2c(Cl)cc(NCc3noc(=O)[nH]3)cc2Cl)nn(C)c1=O ?
**Result** 2.43

**Query** Could you share which log10(EC50) value was measured for CC(C)c1cc(Cc2c(Cl)cc(NC(=O)c3noc(=O)[nH]3)cc2Cl)n[nH]c1=O ?
**Result** 1.73

**Query** Could you share which log10(EC50) value was measured for CC[C@@H](O)c1cc(Oc2c(Cl)cc(NC(=O)c3noc(=O)[nH]3)cc2Cl)n[nH]c1=O ?
**Result** 2.65

**Query** Could you share which log10(EC50) value was measured for CC(C)c1cc(Oc2c(Cl)cc(NCc3noc(=O)[nH]3)c(F)c2Cl)nn(C)c1=O ?
**Result** 1.43

**Query** Could you share which log10(EC50) value was measured for CC(C)c1cc(Oc2c(Cl)cc(OCc3noc(=O)[nH]3)cc2Cl)nn(C)c1=O ?
**Result** 1.76

**Query** Could you share which log10(EC50) value was measured for CC(C)(C)c1cc(Oc2c(Cl)cc(NC(=O)c3noc(=O)[nH]3)cc2Cl)n[nH]c1=O ?
**Result** 2.46

**Query** Could you share which log10(EC50) value was measured for Cc1cc(NC(=O)c2noc(=O)[nH]2)cc(C)c1Cc1cc(C(C)C)c(=O)[nH]n1 ?
**Result** 2.91

**Query** Could you share which log10(EC50) value was measured for CCC(O)c1cc(Oc2c(Cl)cc(NC(=O)c3noc(=O)[nH]3)cc2Cl)n[nH]c1=O (stereo not shown) ?
**Result** 1.94

These entries and their values trace back to patent US10800767B2.
